Cited source for all entries: ChEMBL document CHEMBL5329223

tested on: SNU-475; assay: Cytotoxicity against human SNU-475 cells assessed as cell growth inhibition incubated for 72 hrs by SRB assay; assay type: functional, cell-based; details: SNU-475, 72 h
Please provide measured IC50 for the entries that follow.
The answer is to be given in µM; state only the numeric part.

Exam item: Need IC50 of CC(C)(C)c1ccc(-c2ncnc3c2ncn3C2CCCC2)cc1 , thanks.
Marked response: 12.3

Exam item: Which IC50 value is on record for O=S(=O)(c1ccc(Br)cc1)N1CCN(c2ncnc3c2ncn3C2CCCC2)CC1 ?
Marked response: 9

Exam item: Please give the measured IC50 for this molecule: c1ccc(N2CCN(c3ncnc4c3ncn4C3CCCC3)CC2)cc1
Marked response: 5.8

* * *

Please respond with reported IC50 for every item in the list.
test system: SNU-182; test: Cytotoxicity against human SNU-182 cells assessed as cell growth inhibition incubated for 72 hrs by SRB assay; format: functional, cell-based; settings: SNU-182, 72 h
Please format your answer as a value with the unit trailing.

Exam item: Which IC50 reading was recorded for the compound Fc1ccc(N2CCN(c3ncnc4c3ncn4C3CCCC3)CC2)cc1 ?
Marked response: 41 µM

Exam item: Need IC50, item Nc1nc(F)nc2c1ncn2[C@@H]1O[C@H](CO)[C@@H](O)[C@@H]1O
Marked response: 37.2 µM

Exam item: Requested field: IC50. Item: O=S(=O)(c1ccc(F)cc1)N1CCN(c2ncnc3c2ncn3C2CCCC2)CC1
Marked response: 47.9 µM

Exam item: Fill blank: measured IC50 of the compound O=S(=O)(c1ccc(Br)cc1)N1CCN(c2ncnc3c2ncn3C2CCCC2)CC1 is ____.
Marked response: 60.6 µM

Exam item: Need IC50 of COc1ccc(N2CCN(c3ncnc4c3ncn4C3CCCC3)CC2)cc1 , thanks.
Marked response: 13 µM

Exam item: Any idea what its IC50 is? The compound is Clc1ccc(N2CCN(c3ncnc4c3ncn4C3CCCC3)CC2)cc1Cl
Marked response: 65 µM

Exam item: What does the record list as IC50 for Nc1nc(Cl)nc2c1ncn2[C@H]1C[C@H](O)[C@@H](CO)O1 ?
Marked response: 23.3 µM

Exam item: Param item = CC(C)(C)c1ccc(-c2ncnc3c2ncn3C2CCCC2)cc1 ; retrieve measured IC50.
Marked response: 12.2 µM

Exam item: Reported IC50, compound Clc1ccc(N2CCN(c3ncnc4c3ncn4C3CCCC3)CC2)cc1 : ____
Marked response: 12.2 µM

Exam item: So what does the record say about IC50 for Cc1ccc(N2CCN(c3ncnc4c3ncn4C3CCCC3)CC2)cc1 ?
Marked response: 61 µM

Exam item: Looking for the measured IC50 of c1ccc(N2CCN(c3ncnc4c3ncn4C3CCCC3)CC2)cc1 , can you help?
Marked response: 6 µM

Exam item: Report IC50 for c1ccc(Oc2ccc(-c3ncnc4c3ncn4C3CCCC3)cc2)cc1 please.
Marked response: 65 µM

* * *

tested on: SNU-475; assay: Cytotoxicity against human SNU-475 cells assessed as cell growth inhibition incubated for 72 hrs by SRB assay; type: functional, cell-based; details: SNU-475, 72 h
Would you mind telling me the reported log10 IC50 of each entry?
The figures below represent log10 of IC50, where IC50 is stated in µM.

Exam item: // log10 IC50 lookup, key: Nc1nc(F)nc2c1ncn2[C@@H]1O[C@H](CO)[C@@H](O)[C@@H]1O [FLUDARABINE]
Marked response: 1.62

Exam item: Fill in the blank: the reported log10 IC50 of COc1ccc(S(=O)(=O)N2CCN(c3ncnc4c3ncn4C3CCCC3)CC2)cc1 is ____.
Marked response: 1.76

Exam item: Using the record for Clc1ccc(N2CCN(c3ncnc4c3ncn4C3CCCC3)CC2)cc1Cl , report its log10 IC50.
Marked response: 0.40

Exam item: Return reported log10 IC50; argument: Fc1ccc(N2CCN(c3ncnc4c3ncn4C3CCCC3)CC2)cc1
Marked response: 0.85

Exam item: I'd like to know its log10 IC50. The molecule in question is Clc1ccc(N2CCN(c3ncnc4c3ncn4C3CCCC3)CC2)cc1
Marked response: 1.09

Exam item: Give the measured log10 IC50 of O=S(=O)(c1ccc(F)cc1)N1CCN(c2ncnc3c2ncn3C2CCCC2)CC1 .
Marked response: 1.33

Exam item: # input molecule: Cc1ccc(N2CCN(c3ncnc4c3ncn4C3CCCC3)CC2)cc1 ; wanted: its log10 IC50
Marked response: 1.25

Exam item: Request the reported log10 IC50 associated with COc1ccc(N2CCN(c3ncnc4c3ncn4C3CCCC3)CC2)cc1
Marked response: 1.11

Exam item: For c1ccc(Oc2ccc(-c3ncnc4c3ncn4C3CCCC3)cc2)cc1 , what is its reported log10 IC50?
Marked response: 0.40

Exam item: Record request: log10 IC50 value, item Nc1nc(Cl)nc2c1ncn2[C@H]1C[C@H](O)[C@@H](CO)O1 [CLADRIBINE]
Marked response: 0.40
